Data origin, for the record: the supplement of paper PMC10126150

system: ATP; assay: switch fluorescence ratio, 500 uM ATP over buffer (Cy3 cluster intensity, sum of 5 cycles each) (fold (ratio)); higher = stronger signal-on switching upon ATP binding; sequences stand for … in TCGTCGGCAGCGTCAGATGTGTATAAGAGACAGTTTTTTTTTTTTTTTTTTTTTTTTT…TC; details: aptamer strand: ATP DNA aptamer (quencher-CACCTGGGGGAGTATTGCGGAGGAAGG + anchor), 100 nM annealed; ATP concentration: 500 uM;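 further: ATP exposure 15 min at 22 °C before imaging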
Observed Property: switch fluorescence ratio

Each sequence below has a reported value. Please supply its switch fluorescence ratio.
1. CTCAGGGGGT
2. CCTATGGGTT
3. CGGGGCCGTT
4. ACTGTTTTTC

OUTPUT:
1. 0.976
2. 1.05
3. 1
4. 1

Each sequence below has a reported value. Please supply its switch fluorescence ratio.
1. GGGCGGTGGG
2. GGGGGCGCGG
3. AACGAGTGGG
4. GGGGCGATTG
5. GGTACGTGCA

OUTPUT:
[1, 0.996, 1.03, 1.02, 0.99]

INPUT: Dear colleague, I am looking for the recorded switch fluorescence ratio of the following sequence: AGGTGCTAAT
OUTPUT: 0.968

* * *

system: ATP; assay: switch fluorescence ratio, 500 uM ATP over buffer (Cy3 cluster intensity, sum of 5 cycles each) (fold (ratio)); higher = stronger signal-on switching upon ATP binding; sequences stand for … in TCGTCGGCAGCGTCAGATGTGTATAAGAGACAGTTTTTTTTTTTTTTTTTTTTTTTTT…TC; settings: aptamer strand: ATP DNA aptamer (quencher-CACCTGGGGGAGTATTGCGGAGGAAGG + anchor), 100 nM annealed; ATP concentration: 500 uM;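 further: ATP exposure 15 min at 22 °C before imaging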
Observed Property: switch fluorescence ratio
Answers are plain numbers.

// known answers, use as guide
>  <Monomer Sequence>
GGAACATCTG

>  <Measurement Target>
ATP;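 further: ATP exposure 15 min at 22 °C before imaging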

>  <switch fluorescence ratio>
1.01

$$$$
>  <Monomer Sequence>
CGGAGGGATG

>  <Measurement Target>
ATP;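 further: ATP exposure 15 min at 22 °C before imaging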

>  <switch fluorescence ratio>
1.71

$$$$
>  <Monomer Sequence>
CACTAGAGTG

>  <Measurement Target>
ATP;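 further: ATP exposure 15 min at 22 °C before imaging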

>  <switch fluorescence ratio>
1.02

$$$$

Each sequence below has a reported value. Please supply its switch fluorescence ratio.
1. ATATGCGGGC
2. TGTTACCTGA
3. CCTTCCTGTG

OUTPUT:
1: 1.02; 2: 1.06; 3: 3.62

Each sequence below has a reported value. Please supply its switch fluorescence ratio.
1. CGGAATGTAT
2. ATTTAGTGAC
3. CGATGTGTGG
4. CAATGAGTTT

OUTPUT:
0.992
1.02
0.986
0.97

Each sequence below has a reported value. Please supply its switch fluorescence ratio.
1. GAAAGAAGTC
2. GCTTTAGCAG
3. TTTATTTGCG
4. TTTTTAACTC

OUTPUT:
1: 1.05; 2: 1.03; 3: 0.987; 4: 1.03

Each sequence below has a reported value. Please supply its switch fluorescence ratio.
1. ATAGGCGTGC
2. TGGTTACGGG
3. TATGTAAATT
4. TTATTGTAAT
5. TGGCGCATAA
6. TTCCGTTGTG
7. CGTAGTAACT
8. GGGCTTAACG

OUTPUT:
[1, 0.993, 1.01, 1.03, 1.25, 0.98, 1.11, 0.982]

Each sequence below has a reported value. Please supply its switch fluorescence ratio.
1. AAGCGAAAGA
2. TCGGGATAAG
3. GGGGGATCGA

OUTPUT:
1: 1.03; 2: 1.01; 3: 1.04

Each sequence below has a reported value. Please supply its switch fluorescence ratio.
1. AAAAGGAG
2. GAAGGGAATG
3. ATAGTAGTGG
4. AAAGCACTAG
5. GCGTATTATT

OUTPUT:
1.01
1.01
1
1.11
1

Each sequence below has a reported value. Please supply its switch fluorescence ratio.
1. CGTAGGATGT
2. AAAATGCGCA
3. TTTAAGGTTG
4. AATCTTGGGT
5. AGGTGCATAT
6. TCAGCATTTT
7. CCTGAGTGTA

OUTPUT:
[1.02, 1.02, 0.986, 0.972, 1.04, 1.01, 1]

Each sequence below has a reported value. Please supply its switch fluorescence ratio.
1. GGGTGGACGG
2. CCTCGTTATT
3. TGAGTTATTT
4. AATAGTCGGC
5. TGTGGGCAGT
6. TGCCGGCGGG

OUTPUT:
1: 0.993; 2: 1.27; 3: 1.01; 4: 1; 5: 1.02; 6: 0.963
